TL1A Binding Level (Early) values for the binders below.
Molecular target: T1, human TL1A extracellular domain with N-terminal HIS and FLAG tag (human, UniProt O95150 72-251)
T1 construct: the whole entry is named
T1 sequence: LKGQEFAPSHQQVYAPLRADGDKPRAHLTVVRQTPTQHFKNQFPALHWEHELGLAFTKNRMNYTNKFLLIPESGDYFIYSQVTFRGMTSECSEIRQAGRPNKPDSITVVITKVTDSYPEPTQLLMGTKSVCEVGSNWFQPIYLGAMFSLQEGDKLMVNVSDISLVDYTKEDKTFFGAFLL
Experiment: SPR Run 4, purified Ab captured on Protein A, TL1A 5 ug/mL, timepoint 44

BINDER | TL1A Binding Level (Early), RU
320-344 (antibody, human IgG1, name in Kabat numbering, V domains shown, human IgG1, lambda) VH: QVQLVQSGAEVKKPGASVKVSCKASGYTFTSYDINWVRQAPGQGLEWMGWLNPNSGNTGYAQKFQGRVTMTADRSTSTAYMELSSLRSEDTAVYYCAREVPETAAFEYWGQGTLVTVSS VL: QSVLTQPPSVSGAPGQRVTISCTSSSSDIGAGLGVHWYQQLPGTAPKLLIEGYYNRPSGVPDRFSGSKSGTSASLTITGLLPEDEGDYYCQSYDHTLSALFGGGTKLTVLG | 117
320-327 (antibody, human IgG1, name in Kabat numbering, V domains shown, human IgG1, lambda) VH: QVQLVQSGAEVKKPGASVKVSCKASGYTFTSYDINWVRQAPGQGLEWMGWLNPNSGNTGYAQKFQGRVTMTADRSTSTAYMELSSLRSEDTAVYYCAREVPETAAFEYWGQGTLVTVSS VL: QSVLTQPPSVSGAPGQRVTISCTSSSSDIGAGLGVHWYQQLPGTAPKLLIEGYYNRPSGVPDRFSGSKSGTSASLTITGLLPEDEGDYYCQSQDGTLSALFGGGTKLTVLG | 130
320-314 (antibody, human IgG1, name in Kabat numbering, V domains shown, human IgG1, lambda) VH: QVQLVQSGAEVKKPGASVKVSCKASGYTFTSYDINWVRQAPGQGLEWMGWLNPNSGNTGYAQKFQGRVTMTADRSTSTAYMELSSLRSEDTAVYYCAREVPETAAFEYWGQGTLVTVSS VL: QSVLTQPPSVSGAPGQRVTISCTSSSSDIGAGLGVHWYQQLPGTAPKLLIEGYYNRPSGVPDRFSGSKSGTSASLTITGLLPEDEGDYYCKSYDGTLSALFGGGTKLTVLG | 165
320-347 (antibody, human IgG1, name in Kabat numbering, V domains shown, human IgG1, lambda) VH: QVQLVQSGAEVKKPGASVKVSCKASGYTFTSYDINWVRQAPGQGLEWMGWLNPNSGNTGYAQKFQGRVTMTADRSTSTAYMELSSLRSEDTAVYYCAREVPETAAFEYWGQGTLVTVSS VL: QSVLTQPPSVSGAPGQRVTISCTSSSSDIGAGLGVHWYQQLPGTAPKLLIEGYYNRPSGVPDRFSGSKSGTSASLTITGLLPEDEGDYYCQSYDWTLSALFGGGTKLTVLG | 149
320-365 (antibody, human IgG1, name in Kabat numbering, V domains shown, human IgG1, lambda) VH: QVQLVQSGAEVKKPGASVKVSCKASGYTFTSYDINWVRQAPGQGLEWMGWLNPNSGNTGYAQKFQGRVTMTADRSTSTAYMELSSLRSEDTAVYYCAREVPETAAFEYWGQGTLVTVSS VL: QSVLTQPPSVSGAPGQRVTISCTSSSSDIGAGLGVHWYQQLPGTAPKLLIEGYYNRPSGVPDRFSGSKSGTSASLTITGLLPEDEGDYYCQSYDGTLQALFGGGTKLTVLG | 141
